So I've got a bunch of compounds here, and I need their Kd values.
# condition_set: 0.02 m tris buffer, pH 8
Answer format: number, then unit.

>>> result("O=C1NC(c2ccccc2)(c2ccccc2)C(=O)N1COP(=O)(O)O")
"29.4 mM"

Task: Specify reported Kd for the compound shown: O=C1NC(=O)C(c2ccccc2)(c2ccccc2)N1
Output: 1.26 mM

* * *

# experimental_details: Phenytoin solubility in absence and presence of fosphenytoin and (SBE)7m-β-CD
# Assay type: physicochemical
# condition_set: 0.02 m tris buffer, pH 8, aqueous buffer, pH 8.0, 60 mM (SBE)7m-β-CD, 25° C.; read-out: Phenytoin Conc. (Solubility Criteria)
parameter_measured: solubility at 120 h (mg/mL)
Give bare numbers, in mg/mL.

Task: Specify reported solubility at 120 h for the compound shown: O=C1NC(=O)C(c2ccccc2)(c2ccccc2)N1
Output: 0.476
